Recorded MIC values (Bacillus subtilis 168) are given below.

| mol smiles | MIC |
| --- | --- |
| CC[C@H](C)[C@H](NC(=O)[C@H](CCCCN)NC(=O)[C@H](C)NC(=O)[C@H](CC(C)C)NC(=O)[C@@H](NC(=O)[C@H](CCCCN)NC(=O)[C@H](CCCCN)NC(=O)[C@H](Cc1c[nH]c2ccccc12)NC(=O)[C@H](CC(N)=O)NC(=O)[C@@H](N)C(C)C)C(C)C)C(=O)N[C@H](C(=O)N[C@@H](CCCCN)C(=O)N[C@H](C(=O)N[C@@H](C)C(=O)N[C@@H](CCCCN)C(N)=O)C(C)C)[C@@H](C)CC | 0.6 µM |
| CC[C@H](C)[C@H](NC(=O)[C@H](C)NC(=O)CNC(=O)[C@H](Cc1c[nH]c2ccccc12)NC(=O)[C@H](CC(N)=O)NC(=O)[C@@H](N)CC(C)C)C(=O)N[C@@H](CC(C)C)C(=O)N[C@@H](CCCCN)C(=O)N[C@@H](Cc1cnc[nH]1)C(=O)N[C@H](C(=O)N[C@@H](CCCCN)C(=O)N[C@@H](CCCCN)C(N)=O)[C@@H](C)CC | 13.3 µM |
| CC[C@H](C)[C@H](NC(=O)[C@H](Cc1ccccc1)NC(=O)[C@H](CCCCN)NC(=O)[C@H](CCCCN)NC(=O)[C@H](CCC(=O)O)NC(=O)[C@H](CC(N)=O)NC(=O)[C@H](Cc1ccc(O)cc1)NC(=O)[C@H](CCCCN)NC(=O)[C@H](CC(N)=O)NC(=O)[C@H](CC(C)C)NC(=O)[C@H](CCC(=O)O)NC(=O)[C@H](CC(N)=O)NC(=O)[C@H](CC(C)C)NC(=O)[C@H](Cc1ccccc1)NC(=O)[C@H](CO)NC(=O)[C@@H](N)[C@@H](C)O)C(=O)O | 15.7 µM |
